Listing of entries alongside the reported GPX4% inhibition at 200 (μM).
- tested_target: GPX4 (Homo sapiens)
- Sequence (P36969 1-170 isoform P36969-2): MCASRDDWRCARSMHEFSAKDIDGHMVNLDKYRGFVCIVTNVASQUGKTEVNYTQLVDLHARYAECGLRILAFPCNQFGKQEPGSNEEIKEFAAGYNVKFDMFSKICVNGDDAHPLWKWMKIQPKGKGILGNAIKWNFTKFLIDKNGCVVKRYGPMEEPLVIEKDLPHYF
- test_method_notes: GPX4 activity assay in cell lysates (NADPH-coupled)
- Format: biochemical
- Parameters: endogenous in cells; host or cells: A-673 cell lysate
- condition_details: 200 μM; generation 2
Write the value in % as a bare number.

Some entries whose results are on file:
• C=CC(=O)OCC(C)(C)NC(=O)c1nn(C)c2ccccc12 = −7.3
• Cn1nc(C(=O)N2CCN(C(=O)CCl)CC2)c2ccc(Br)cc21 = 33.2
• Cn1nc(C(=O)NC(C)(C)COC(=O)CCl)c2cccc(OC(=O)CCl)c21 = 101.9
• Cn1nc(C(=O)NC(C)(C)COC(=O)CBr)c2ccccc21 = 94.5
• Cn1nc(C(=O)NC(C)(C)COC(=O)CCl)c2ccccc21 = 95.8
• CC(C)(COC(=O)CBr)NC(=O)c1n[nH]c2ccccc12 = 73.1
• Cn1nc(C(=O)NC(C)(C)COC(=O)CCl)c2cc(Br)ccc21 = 105.7
• CC(C)(COC(=O)CCl)NC(=O)c1n[nH]c2ccccc12 = 83.1

Record summary for C=CC(=O)OCC(C)(C)NC(=O)c1n[nH]c2ccccc12 : reported GPX4% inhibition at 200 (μM) = 7.9

Record summary for COc1ccc2c(C(=O)NC(C)(C)COC(=O)CCl)n[nH]c2c1 : reported GPX4% inhibition at 200 (μM) = 84.3
